compounds and their reported IC50
Target: AAK1 (Homo sapiens, UniProt Q2M2I8)
Construct: HA; expressed in transfected cells; host or cells: HEK293F
Sequence (Q2M2I8 1-863 isoform Q2M2I8-2): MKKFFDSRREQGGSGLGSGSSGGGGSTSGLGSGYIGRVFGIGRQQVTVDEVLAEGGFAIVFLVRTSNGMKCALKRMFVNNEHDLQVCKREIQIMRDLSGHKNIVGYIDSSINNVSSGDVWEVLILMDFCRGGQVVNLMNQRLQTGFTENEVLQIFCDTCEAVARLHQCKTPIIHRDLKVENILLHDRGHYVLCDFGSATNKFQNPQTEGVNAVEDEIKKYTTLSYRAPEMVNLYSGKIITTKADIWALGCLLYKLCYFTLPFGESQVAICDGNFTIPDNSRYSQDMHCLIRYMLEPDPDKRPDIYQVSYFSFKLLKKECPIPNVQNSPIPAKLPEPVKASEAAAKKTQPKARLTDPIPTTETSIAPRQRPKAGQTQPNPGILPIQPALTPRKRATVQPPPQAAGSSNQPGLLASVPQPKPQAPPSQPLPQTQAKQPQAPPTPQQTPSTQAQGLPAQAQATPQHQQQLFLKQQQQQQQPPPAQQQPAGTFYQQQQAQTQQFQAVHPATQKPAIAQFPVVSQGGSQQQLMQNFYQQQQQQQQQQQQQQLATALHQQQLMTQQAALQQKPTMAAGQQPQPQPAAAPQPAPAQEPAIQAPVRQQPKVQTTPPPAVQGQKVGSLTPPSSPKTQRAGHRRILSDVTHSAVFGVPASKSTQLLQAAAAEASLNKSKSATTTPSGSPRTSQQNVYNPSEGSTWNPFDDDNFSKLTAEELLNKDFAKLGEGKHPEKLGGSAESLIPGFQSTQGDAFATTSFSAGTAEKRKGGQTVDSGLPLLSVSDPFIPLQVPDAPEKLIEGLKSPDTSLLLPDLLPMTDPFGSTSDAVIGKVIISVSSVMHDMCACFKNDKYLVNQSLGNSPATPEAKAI
Experiment: HEK281 cell-based assay (phospho-mu2 Western blot in transfected HEK293F cells)
Details: 3 hours incubation, read-out: CBA IC50

Some solved cases for reference:
>  <compound>
COc1cnccc1-c1cnc2ccc(NCCC(C)C)nn12

>  <IC50>
≤ 100 nM

$$$$
>  <compound>
CC(C)OCCNc1ccc2ncc(-c3cscn3)n2n1

>  <IC50>
≤ 1000 nM

$$$$
>  <compound>
CCCCNc1ccc2ncc(C(=O)Nc3ccc(OCCN)cc3)n2n1

>  <IC50>
≤ 1000 nM

$$$$
>  <compound>
CN(C(=O)OC(C)(C)C)C1CCN(c2ccc3ncc(-c4ccccc4)n3n2)C1 (stereo not shown)

>  <IC50>
≤ 100 nM

$$$$
>  <compound>
CCCOC(=O)N(CCNc1ccc2ncc(-c3ccncc3OC)n2n1)C(C)C

>  <IC50>
≤ 1000 nM

$$$$

Enquiry: Returns the measured IC50 for the input compound. Input: O=C(OC1CCC1)N1CCC[C@H]1CNc1ccc2ncc(Br)n2n1
Return: ≤ 100 nM

Enquiry: Returns the measured IC50 for the input compound. Input: CCCCNc1ccc2ncc(-c3ccc(C(=O)NCCN(C)C)cc3)n2n1
Return: ≤ 100 nM

Enquiry: Returns the measured IC50 for the input compound. Input: COc1ncc(F)cc1-c1cnc2ccc(N3CCN(C(=O)OC(C)C)CC3)nn12
Return: ≤ 10 nM

Enquiry: Returns the measured IC50 for the input compound. Input: CCCCNc1ccc2ncc(-c3ccc(CNC(C)(C)C)c(F)c3)n2n1
Return: ≤ 100 nM

Enquiry: Returns the measured IC50 for the input compound. Input: COc1ccccc1-c1cnc2ccc(N3CCN(C(=O)OC(C)C)CC3)nn12
Return: ≤ 10 nM

Enquiry: Returns the measured IC50 for the input compound. Input: COc1cnccc1-c1cnc2ccc(N3CCN(C(=O)CC(C)(C)C)CC3)nn12
Return: ≤ 100 nM

Enquiry: Returns the measured IC50 for the input compound. Input: CC(C)OC(=O)N(C)CCNc1ccc2ncc(-c3ccnc(N)c3)n2n1
Return: ≤ 100 nM

* * *

compounds and their reported IC50
Target: AAK1 (Homo sapiens, UniProt Q2M2I8)
Construct: HA; expressed in transfected cells; host or cells: HEK293F
Experiment: P81 filter plate assay
Format: biochemical
Settings: full-length human AAK1, Mu2 substrate

>  <substance_smiles>
CC(C)C[C@H](N)C(=O)N1CCN(c2ccc3ncc(Cl)n3n2)CC1

>  <property_measured>
IC50

>  <obs_value>
≤ 100 nM

$$$$
>  <substance_smiles>
COc1ncccc1-c1cnc2ccc(N3CC[C@H](N(C)C(=O)OC(C)C)C3)nn12

>  <property_measured>
IC50

>  <obs_value>
≤ 10 nM

$$$$
>  <substance_smiles>
CC(C)(C)CC(=O)N1CCC[C@H]1CNc1ccc2ncc(-c3ccc(CN)cc3)n2n1

>  <property_measured>
IC50

>  <obs_value>
≤ 10 nM

$$$$
>  <substance_smiles>
CC(C)(C)NC(=O)N1CCN(c2ccc3ncc(-c4ccccc4)n3n2)CC1

>  <property_measured>
IC50

>  <obs_value>
≤ 10 nM

$$$$

Enquiry: Returns the measured IC50 for the input compound. Input: COc1ncccc1-c1cnc2ccc(OC[C@@H]3CCCN3C(=O)OC(C)C)nn12
Return: ≤ 100 nM
